test: DRUGMATRIX: Sodium/nucleoside co-transporter radioligand binding (ligand: nitrobenzylthioinosine)
Assay type: cell membranes, Cavia porcellus, Dunkin-Hartley, Cerebral cortex, Membrane
stated_conditions: Not Active = under 50% inhibition at 10 µM
property_name: IC50

Past entries and their recorded results:
The compound listed as ClC(Cl)Cl [CHLOROFORM] has a reported IC50 of Not Active

// IC50 lookup, compound = CC(C)(Oc1ccc(C2CCCc3ccccc32)cc1)C(=O)O (stereo not given) , result: Not Active

For reference, reported IC50 for CO[C@H]1/C=C/O[C@@]2(C)Oc3c(C)c(O)c4c(c3C2=O)C2=NC3(CCN(CC(C)C)CC3)NC2=C(NC(=O)/C(C)=C\C=C\[C@H](C)[C@H](O)[C@@H](C)[C@@H](O)[C@@H](C)[C@H](OC(C)=O)[C@@H]1C)C4=O stands at Not Active

The recorded IC50 for entry CC(=O)Nc1c(I)c(NC(C)=O)c(I)c(C(=O)O)c1I equals Not Active

Further cases:
The compound listed as COCCCOc1ccnc(C[S+]([O-])c2nc3ccccc3[nH]2)c1C (stereo not given) has a reported IC50 of Not Active

###

target_of_assay: Tyrosine-protein kinase Fyn (Homo sapiens);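 further: enzymatic inhibition of Fyn kinase activity measured with Poly(Glu:Tyr) as the phosphorylation substrate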; further: in other assays of this panel Not Active means under 50% inhibition at 10 µM
Sequence (P06241 whole entry): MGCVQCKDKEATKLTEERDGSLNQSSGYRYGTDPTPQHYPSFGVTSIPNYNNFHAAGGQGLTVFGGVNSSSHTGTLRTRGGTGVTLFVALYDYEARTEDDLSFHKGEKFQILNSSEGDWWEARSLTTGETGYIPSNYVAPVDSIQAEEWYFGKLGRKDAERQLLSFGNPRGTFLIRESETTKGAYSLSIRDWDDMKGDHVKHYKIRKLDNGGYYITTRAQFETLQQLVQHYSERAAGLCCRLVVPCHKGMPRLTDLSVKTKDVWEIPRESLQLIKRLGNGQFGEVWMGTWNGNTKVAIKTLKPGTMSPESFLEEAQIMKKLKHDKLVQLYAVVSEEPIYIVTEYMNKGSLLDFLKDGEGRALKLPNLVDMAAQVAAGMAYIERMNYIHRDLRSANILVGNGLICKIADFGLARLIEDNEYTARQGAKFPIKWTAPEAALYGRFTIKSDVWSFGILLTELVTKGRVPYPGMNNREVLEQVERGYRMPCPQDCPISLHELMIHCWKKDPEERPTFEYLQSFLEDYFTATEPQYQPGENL
test: biochemical
Assay type: cell-based, Insect cells
stated_conditions: insect cells; read-out: IC50
property_name: IC50 (nM)
Give just the number in nM; leave the unit off.

Value sought: IC50, system Tyrosine-protein kinase Fyn (Homo sapiens), item CADMIUM DICHLORIDE . Result: 137

###

test: DRUGMATRIX: beta-Lactamase enzyme inhibition (substrate: Nitrocefin)
Set-up: species or system Bacillus cereus
stated_conditions: Not Active = under 50% inhibition at 10 µM
property_name: Ki

Sample CC(C)C[C@H](NC(=O)[C@@H](O)[C@H](N)Cc1ccccc1)C(=O)O [UBENIMEX] ; Ki observed: Not Active

Per the record, CC(=O)N[C@@H]1[C@H](Oc2c3cc4cc2Oc2ccc(cc2Cl)[C@@H](O[C@@H]2O[C@@H](CO)[C@@H](O)[C@H](O)[C@@H]2NC(C)=O)[C@@H]2NC(=O)[C@H](NC(=O)[C@@H]4NC(=O)[C@H]4NC(=O)[C@@H](Cc5ccc(c(Cl)c5)O3)NC(=O)[C@H](N)c3ccc(O)c(c3)Oc3cc(O)cc4c3)c3ccc(O)c(c3)-c3c(O[C@H]4O[C@H](CO)[C@@H](O)[C@@H](O)[C@@H]4O)cc(O)cc3[C@@H](C(=O)O)NC2=O)O[C@@H](CO)[C@@H](O)[C@@H]1O has Ki of Not Active

###

target_of_assay: Amine oxidase [flavin-containing] A (Homo sapiens, UniProt P21397)
Sequence (P21397 whole entry): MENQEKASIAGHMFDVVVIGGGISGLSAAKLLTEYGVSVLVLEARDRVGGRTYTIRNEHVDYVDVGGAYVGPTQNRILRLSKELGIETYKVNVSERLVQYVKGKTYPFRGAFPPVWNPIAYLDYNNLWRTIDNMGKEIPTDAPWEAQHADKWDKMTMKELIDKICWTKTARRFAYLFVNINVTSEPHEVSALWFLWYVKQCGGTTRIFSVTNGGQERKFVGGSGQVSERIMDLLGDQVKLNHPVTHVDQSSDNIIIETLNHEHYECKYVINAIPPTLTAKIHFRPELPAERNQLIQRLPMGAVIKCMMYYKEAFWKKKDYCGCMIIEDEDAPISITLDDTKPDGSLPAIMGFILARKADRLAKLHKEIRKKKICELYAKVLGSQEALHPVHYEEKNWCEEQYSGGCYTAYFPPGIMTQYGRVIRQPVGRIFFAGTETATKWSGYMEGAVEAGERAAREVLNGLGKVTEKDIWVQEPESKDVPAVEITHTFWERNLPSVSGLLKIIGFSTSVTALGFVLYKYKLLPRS
test: DRUGMATRIX: Monoamine Oxidase MAO-A enzyme inhibition (substrate: Kynuramine)
Design: species or system BTI-TN-5B1-4
stated_conditions: bti-tn-5b1-4; Not Active = under 50% inhibition at 10 µM
property_name: IC50

Query CC(=O)Nc1ccc(O)cc1 [ACETAMINOPHEN] on Amine oxidase [flavin-containing] A (Homo sapiens, UniProt P21397); IC50 returned: Not Active

GET /values?item= C[C@@H](N)[C@H]1CC[C@H](C(=O)Nc2ccncc2)CC1 [Y-27632] &system= Amine oxidase [flavin-containing] A (Homo sapiens, UniProt P21397) returns IC50: Not Active

Item O=C1CCC(N2C(=O)c3ccccc3C2=O)C(=O)N1 (stereo not given) [THALIDOMIDE] was tested on Amine oxidase [flavin-containing] A (Homo sapiens, UniProt P21397); the reported IC50 is Not Active

Entry CC(C)NCC(O)COc1cccc2ccccc12 (stereo not given) [PROPRANOLOL] under Amine oxidase [flavin-containing] A (Homo sapiens, UniProt P21397) had IC50 of Not Active

---
O=C(C1CCCCC1)N1CC(=O)N2CCc3ccccc3C2C1 (stereo not given) [PRAZIQUANTEL] tested on Amine oxidase [flavin-containing] A (Homo sapiens, UniProt P21397) gave IC50: Not Active
